# Tested on: A375 (Melanoma)
# Procedure Details: combination Emax (second highest fraction inhibited in the dose matrix, 72 h); higher = more inhibition; extreme values may be limits of the assay
# reported combination Emax; entries follow
Form field (numeric): enter value without unit.

Compound	combination Emax
CC(=O)Nc1cccc(-n2c(=O)n(C3CC3)c(=O)c3c(Nc4ccc(I)cc4F)n(C)c(=O)c(C)c32)c1 [Trametinib] + Cc1nc(-c2cn3c(n2)-c2ccc(-c4cnn(C(C)(C)C(N)=O)c4)cc2OCC3)n(C(C)C)n1 [Taselisib] (first compound max 1 µM, 7x7, partner max 10 µM)	0.935
COc1cccc(OCCCN)c1-c1cc(Nc2cnc(C#N)cn2)n[nH]1 [Prexasertib] + C=CCn1c(=O)c2cnc(Nc3ccc(N4CCN(C)CC4)cc3)nc2n1-c1cccc(C(C)(C)O)n1 [AZD1775] (first compound max 1 µM, partner max 1 µM)	0.952
NC1(C(=O)N[C@@H](CCO)c2ccc(Cl)cc2)CCN(c2ncnc3[nH]ccc23)CC1 [Capivasertib] + CCN(CCO)CCCOc1ccc2c(Nc3cc(CC(=O)Nc4cccc(F)c4)[nH]n3)ncnc2c1 [AZD2811] (first compound max 10 µM, 7x7, partner max 1 µM)	0.421
C[C@@H](Oc1cc(-c2cnn(C3CCNCC3)c2)cnc1N)c1c(Cl)ccc(F)c1Cl [Crizotinib] + Cn1cnc2c(F)c(Nc3ccc(Br)cc3Cl)c(C(=O)NOCCO)cc21 [Selumetinib] (first compound max 10 µM, 7x7, partner max 10 µM)	0.938
CN(CCO)CC[C@H](CSc1ccccc1)Nc1ccc(S(=O)(=O)NC(=O)c2ccc(N3CCC([C@@H](O)c4ccccc4-c4ccc(Cl)cc4)CC3)cc2)cc1S(=O)(=O)C(F)(F)F [AZD4320] + C[C@@H](Nc1cc(F)cc(F)c1)c1cc(C(=O)N(C)C)cc2c(=O)cc(N3CCOCC3)oc12 [AZD8186] (first compound max 1 µM, 7x7, partner max 3 µM)	0.519

API: value(readout=combination Emax, system=A375 (Melanoma)) for record NC1(C(=O)N[C@@H](CCO)c2ccc(Cl)cc2)CCN(c2ncnc3[nH]ccc23)CC1 [Capivasertib] + C[C@@H]1COCCN1C2=NC(=NC(=C2)C3(CC3)[S@](=N)(=O)C)C4=C5C=CNC5=NC=C4 [AZD6738] (first compound max 10 µM, 7x7, partner max 10 µM) 0.723

Can you handle CC(=O)c1c(C)c2cnc(Nc3ccc(N4CCNCC4)cn3)nc2n(C2CCCC2)c1=O [Palbociclib] + CC1(C)CCC(CN2CCN(c3ccc(C(=O)NS(=O)(=O)c4ccc(NCC5CCOCC5)c([N+](=O)[O-])c4)c(Oc4cnc5[nH]ccc5c4)c3)CC2)=C(c2ccc(Cl)cc2)C1 [Venetoclax] (first compound max 10 µM, 7x7, partner max 1 µM) next? 0.195

Can you handle Cn1cnc2c(F)c(Nc3ccc(Br)cc3Cl)c(C(=O)NOCCO)cc21 [Selumetinib] + CC(C)n1c(=O)n(C)c2cnc3cc(F)c(-c4ccc(OCCCN5CCCCC5)nc4)cc3c21 [AZD1390] (first compound max 10 µM, 7x7, partner max 0.3 µM) next? 0.684

Can you handle CN(CCO)CC[C@H](CSc1ccccc1)Nc1ccc(S(=O)(=O)NC(=O)c2ccc(N3CCC([C@@H](O)c4ccccc4-c4ccc(Cl)cc4)CC3)cc2)cc1S(=O)(=O)C(F)(F)F [AZD4320] + CN(C)CCCOc1ccc(-c2ccc3ncc4c(c3c2)n(C2CCOCC2)c(=O)n4C)cn1 [AZD0156] (first compound max 1 µM, 7x7, partner max 1 µM) next? 0.129

Can you handle Cc1c2c(nn1C)CSCc1cc(n(C)n1)CSc1cc(c3ccccc3c1)OCCCc1c(C(=O)O)n(C)c3c-2c(Cl)ccc13 [AZD5991] + CC(=O)O[C@H]1C(=O)[C@@]2(C)[C@H]([C@H](OC(=O)c3ccccc3)[C@]3(O)C[C@H](OC(=O)[C@H](O)[C@@H](NC(=O)c4ccccc4)c4ccccc4)C(C)=C1C3(C)C)[C@]1(OC(C)=O)CO[C@@H]1C[C@@H]2O [Paclitaxel] (first compound max 1 µM, 7x7, partner max 3 µM) next? 0.787

These entries and their values trace back to the supplement of paper PMC11061612.
